testMethodNotes: Viability qHTS for spleen associated tyrosine kinase inhibitor (SYKi) drug resistant MV4-11 cells (AID 1963824); further: nearly all actives have a fitted effect of over 35% in size
testParameters: SYKi-resistant MV4-11 viability, CellTiter-Glo, 72 h; series mostly up to 45 µM
Results filed as inconclusive are left out. Activity calls are given as the source filed them. The call rests on the fitted dose curve; in most records, active means well fitted cell-killing curve with a large enough effect; inconclusive means small, poorly fitted or top-dose-only effect, or effect the other way; inactive means no such curve, though single readings can be large or run the other way.
Outcomes: active, inactive

INSERT INTO measurements (compound, cat) VALUES
  ('Cc1coc2ccccc2c1=O', 'inactive'),
  ('COCCCNCC1COc2ccccc2O1 (centres undefined)', 'inactive'),
  ('CCC[C@H](N[C@@H](C)C(=O)N1[C@H](C(=O)O)C[C@@H]2CCCC[C@@H]21)C(=O)O', 'inactive'),
  ('COc1ccc2[nH]c3c(-c4cccc5ccccc45)nccc3c2c1', 'active'),
  ('Nc1[nH]nc2nnc(-c3c(-c4ccccc4)nn4ccccc34)cc12', 'active'),
  ('COc1cccc(OC)c1-c1cc(C(=O)NC2(C(=O)O)C3CC4CC(C3)CC2C4)nn1-c1ccnc2cc(Cl)ccc12 (centres undefined)', 'active'),
  ('CCN(c1ccccc1)c1cc(NC)[n+](C)c(C)n1', 'active'),
  ('CS(=O)(=O)N1CCC(NC(=O)c2[nH]ncc2NC(=O)c2c(Cl)cccc2Cl)CC1', 'active'),
  ('Cc1cc(C)nc(NS(=O)(=O)c2ccc(NC(=S)NC(=O)COc3ccc(Br)cc3Cl)cc2)n1', 'inactive');
